# LD50 annotations
assay: rat acute oral toxicity; details: in vivo

The examples below pair each entry with its known result.
Cn1cnc2c1c(=O)[nH]c(=O)n2C
950 mg/kg
COC(=O)CS
84 mg/kg

The compound `CCCCCCCC[Si](OCC)(OCC)OCC` showed LD50 equal to 11500 mg/kg

----------
Experiment: GHS categories as the set defines them, by LD50: 1 up to 5, 2 up to 50, 3 up to 300, 4 up to 2000, 5 above 2000 mg/kg
Conditions: rat; in vivo; po
Description: […]The data set underlying the modeling effort for this project was initially compiled by NICEATM and U.S. EPA’s CCTE. Briefly, LD50 data were collected from rat acute oral systemic toxicity tests, including limit tests, ranges/confidence intervals, and discrete LD50 values. The full data set included 21,200 LD50 entries for 15,688 substances. […]
Quick reference: GHS category of the listed items.
Write the number on its own, no unit after it.

What the record says about `OC[C@H]1O[C@@H](n2cnc3c(NC[C@H](O)COc4cccc5ccccc45)ncnc32)[C@H](O)[C@@H]1O` : GHS category is 4

The reported value for `Cc1ccc(-c2c(Cl)nc(C#N)n2S(=O)(=O)N(C)C)cc1` in terms of GHS category is 5

molecule CCCCC(C)OP(=S)(OCC)OCC (configuration not stated) , GHS category observed: 4

Briefly, GHS category measured for `O=S(=O)(O)c1cc(O)ccc1O` : 5

// recorded GHS category for `Cn1cc(-c2ccccc2)c(=O)c(-c2cccc(C(F)(F)F)c2)c1` : 5

Note to self: GHS category recorded for `NC(=O)N(CO)CO` was 5

get_value(item= `CCNC(=O)[C@@H]1CCCN1C(=O)[C@H](CCCN=C(N)N)NC(=O)[C@H](CC(C)C)NC(=O)[C@@H](COC(C)(C)C)NC(=O)[C@H](Cc1ccc(O)cc1)NC(=O)[C@H](CO)NC(=O)[C@H](Cc1c[nH]c2ccccc12)NC(=O)[C@H](Cc1cnc[nH]1)NC(=O)[C@@H]1CCC(=O)N1` , readout=GHS category) returns 4

The recorded GHS category for entry `CNS(=O)(=O)c1ccccc1-c1nnc(N)s1` equals 5

Data point: `O=c1nc(-c2cccnc2)[nH]c2ncccc12` ; GHS category = 4

Form field GHS category, entry `CCCCCCCCCCCCCC(=O)Nc1ccc(Cc2ccccn2)c([N+](=O)[O-])c1` : 3

Consider `CC(C)(C)CC(C)(C)c1cc(-n2nc3ccccc3n2)c(O)c(C(C)(C)c2ccccc2)c1` . Its measured GHS category is 5

The value of GHS category measured for the molecule `CCCCCCCCCCCCCCCCCOS(=O)(=O)O` turned out to be 4

According to the records, this molecule `Brc1c(Br)c(Br)c(CCc2c(Br)c(Br)c(Br)c(Br)c2Br)c(Br)c1Br` displays GHS category of 5

# GHS category of `CN1C(=O)C(C)(C)Oc2cc(C(=O)c3ccccc3)ccc21` = 5

The recorded GHS category for `Nc1nc(N)nc(N)n1` is 5
